ASSAY_TEXT: Selectivity index, ratio of CC50 for human HFF cells to EC50 for Cowpox virus (Brighton Red)
Type: toxicity, cell-based
CONDITIONS_USED: read-out: Ratio CC50/EC50
Reported selectivity ratio values are given for each entry in this list.
Answer as a number with no unit attached.

CCCCCCCCCCCCCCCCCCOC[C@@H](COP(=O)(O)CO[C@H](CO)Cn1ccc(N)nc1=O)OCc1ccccc1
157

Q. I would be grateful if you could share the reported selectivity ratio for CC(C)CCCCCCCCCCCCCCOCCOP(=O)(O)CO[C@H](CO)Cn1cnc2c(N)ncnc21 .
A. 250

Q. I would be grateful if you could share the reported selectivity ratio for Nc1ccn(C[C@@H](CO)OCP(=O)(O)OCCCOCCCCCCCCCCCCCCC2CC2)c(=O)n1 .
A. 112

Q. I would be grateful if you could share the reported selectivity ratio for CCCCCCCCCCCCCCCCOCCCOP(=O)(O)CO[C@H](CO)Cn1cnc2c(N)ncnc21 .
A. 140

Q. I would be grateful if you could share the reported selectivity ratio for CC(C)CCCCCCCCCCCCCCOCCCOP(=O)(O)CO[C@H](CO)Cn1ccc(N)nc1=O .
A. 150

Q. I would be grateful if you could share the reported selectivity ratio for CCCCCCCCCCCCCCCCOCCOP(=O)(O)CO[C@H](CO)Cn1cnc2c(N)ncnc21 .
A. 156
